Reported Ki values for a set of compounds
molecular target: 5-hydroxytryptamine receptor 2C (Homo sapiens)
Sequence (P28335 whole entry): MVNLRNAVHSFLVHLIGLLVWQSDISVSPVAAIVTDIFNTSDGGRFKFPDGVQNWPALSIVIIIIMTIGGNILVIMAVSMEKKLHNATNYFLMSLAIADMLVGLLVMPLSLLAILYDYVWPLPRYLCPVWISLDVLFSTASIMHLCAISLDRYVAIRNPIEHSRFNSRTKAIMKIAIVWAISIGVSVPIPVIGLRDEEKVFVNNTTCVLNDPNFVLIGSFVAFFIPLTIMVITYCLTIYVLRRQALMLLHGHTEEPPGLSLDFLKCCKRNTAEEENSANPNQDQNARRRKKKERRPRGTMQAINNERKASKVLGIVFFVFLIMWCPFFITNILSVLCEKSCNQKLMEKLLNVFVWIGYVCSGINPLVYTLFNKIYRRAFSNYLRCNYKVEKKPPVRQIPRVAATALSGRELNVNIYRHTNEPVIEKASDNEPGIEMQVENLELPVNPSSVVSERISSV
Parameter Measured: Ki (nM)

>>> df
                                    compound  parameter_measured  recorded_result
 0                   Cc1[nH]c2ccc(O)cc2c1CCN                  Ki             1200
 1  COc1cc(CC(C)N)c(OC)cc1I (configuration not stated) [[125I]2,5-dimethoxy-4-iodoamphetamine]                  Ki             7.94
 2                  c1ccc2nc(N3CCNCC3)ccc2c1                  Ki              339
 3             COc1ccc2c(c1[C@@H]1CCNC1)CCC2                  Ki             6.76
 4  C[C@H](N)Cc1cccc(C(F)(F)F)c1 [Norfenfluramine (+)]                  Ki              170
 5  CN1CCc2cc(Cl)c(O)cc2[C@@H](c2ccccc2)C1 [SCH 23390,R(+)]                  Ki             40.7
 6  CC(N)Cn1ccc2cc(F)c(Cl)cc21 (configuration not stated)                  Ki             32.4
 7                      Clc1cncc(N2CCNCC2)n1                  Ki              214
 8  CC(N)Cc1c[nH]c2ccc(OCc3cccs3)cc12 (configuration not stated)                  Ki             93.3
 9                    Cn1cc(CCN)c2cc(O)ccc21                  Ki             11.5
10              FC(F)(F)c1ccc(N2CCNCC2)nc1Cl                  Ki             97.7
11                       NCCc1c[nH]c2ccccc12                  Ki             45.7

---

biological target: 5-hydroxytryptamine receptor 2B (Homo sapiens, UniProt P41595)
Sequence (P41595 whole entry): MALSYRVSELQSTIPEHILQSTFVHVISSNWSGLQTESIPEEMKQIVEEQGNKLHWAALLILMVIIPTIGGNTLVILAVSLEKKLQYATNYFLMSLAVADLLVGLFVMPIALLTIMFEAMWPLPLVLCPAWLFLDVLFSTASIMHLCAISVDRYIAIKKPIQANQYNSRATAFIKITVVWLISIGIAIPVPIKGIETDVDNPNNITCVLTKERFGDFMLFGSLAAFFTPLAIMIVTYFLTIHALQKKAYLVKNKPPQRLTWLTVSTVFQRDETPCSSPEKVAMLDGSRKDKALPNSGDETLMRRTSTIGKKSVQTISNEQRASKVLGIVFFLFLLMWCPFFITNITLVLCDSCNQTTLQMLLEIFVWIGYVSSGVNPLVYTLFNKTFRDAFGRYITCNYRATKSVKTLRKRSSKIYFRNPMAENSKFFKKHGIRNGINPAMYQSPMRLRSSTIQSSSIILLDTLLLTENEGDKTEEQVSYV
Quick reference for Ki among some compounds
Parameter Measured: Ki (nM)

In [3]: df
Out[3]:
                                    compound                             target_entity  measurement_units  recorded_result
 0  C[C@H](N)Cc1cccc(C(F)(F)F)c1 [Norfenfluramine (+)]  5-hydroxytryptamine receptor 2B (Homo sapiens, UniProt P41595)                 nM             8.71
 1                   Cc1[nH]c2ccc(O)cc2c1CCN  5-hydroxytryptamine receptor 2B (Homo sapiens, UniProt P41595)                 nM              170
 2  CN1CCc2cc(Cl)c(O)cc2[C@@H](c2ccccc2)C1 [SCH 23390,R(+)]  5-hydroxytryptamine receptor 2B (Homo sapiens, UniProt P41595)                 nM             70.8
 3  COc1cc(CC(C)N)c(OC)cc1I (stereo not given) [[125I]2,5-dimethoxy-4-iodoamphetamine]  5-hydroxytryptamine receptor 2B (Homo sapiens, UniProt P41595)                 nM             1.41
 4  c1ccc2nc(N3CCNCC3)ccc2c1 [2-Piperazin-1-yl-quinoline (Quipazine)]  5-hydroxytryptamine receptor 2B (Homo sapiens, UniProt P41595)                 nM              178
 5          Clc1cncc(N2CCNCC2)n1 [L-630,571]  5-hydroxytryptamine receptor 2B (Homo sapiens, UniProt P41595)                 nM              295
 6  COc1cc(CC(C)N)c(OC)cc1Br (stereo not given)  5-hydroxytryptamine receptor 2B (Homo sapiens, UniProt P41595)                 nM             2.88
 7  COc1ccc2c(c1[C@@H]1CCNC1)CCC2 [ORG-37684]  5-hydroxytryptamine receptor 2B (Homo sapiens, UniProt P41595)                 nM               11
 8  CC(N)Cn1ccc2cc(F)c(Cl)cc21 (stereo not given) [NSC_3045226]  5-hydroxytryptamine receptor 2B (Homo sapiens, UniProt P41595)                 nM             0.89
 9  NCCc1c[nH]c2ccccc12 [1H-indole-3-ethanamine]  5-hydroxytryptamine receptor 2B (Homo sapiens, UniProt P41595)                 nM             29.5
10  CCCN(CCC)C1CCc2cccc(O)c2C1 (stereo not given)  5-hydroxytryptamine receptor 2B (Homo sapiens, UniProt P41595)                 nM              891
11  Cn1cc(CCN)c2cc(O)ccc21 [5-HT,omega-N-Me]  5-hydroxytryptamine receptor 2B (Homo sapiens, UniProt P41595)                 nM                2
12  NCCc1c[nH]c2ccc(C(N)=O)cc12 [[3H]-5-carboxamidotryptamine]  5-hydroxytryptamine receptor 2B (Homo sapiens, UniProt P41595)                 nM             15.5
13        FC(F)(F)c1cccc(N2CCNCC2)c1 [TFMPP]  5-hydroxytryptamine receptor 2B (Homo sapiens, UniProt P41595)                 nM              288
14              FC(F)(F)c1ccc(N2CCNCC2)nc1Cl  5-hydroxytryptamine receptor 2B (Homo sapiens, UniProt P41595)                 nM              525
